- TESTED_SYSTEM: NS5B polymerase protein (Hepatitis C virus genotype 1a, UniProt P27958)
- Construct: pre-incubated with the RNA template and NS5B polymerase protein; Replizyme
- Sequence (P27958 2421-3011): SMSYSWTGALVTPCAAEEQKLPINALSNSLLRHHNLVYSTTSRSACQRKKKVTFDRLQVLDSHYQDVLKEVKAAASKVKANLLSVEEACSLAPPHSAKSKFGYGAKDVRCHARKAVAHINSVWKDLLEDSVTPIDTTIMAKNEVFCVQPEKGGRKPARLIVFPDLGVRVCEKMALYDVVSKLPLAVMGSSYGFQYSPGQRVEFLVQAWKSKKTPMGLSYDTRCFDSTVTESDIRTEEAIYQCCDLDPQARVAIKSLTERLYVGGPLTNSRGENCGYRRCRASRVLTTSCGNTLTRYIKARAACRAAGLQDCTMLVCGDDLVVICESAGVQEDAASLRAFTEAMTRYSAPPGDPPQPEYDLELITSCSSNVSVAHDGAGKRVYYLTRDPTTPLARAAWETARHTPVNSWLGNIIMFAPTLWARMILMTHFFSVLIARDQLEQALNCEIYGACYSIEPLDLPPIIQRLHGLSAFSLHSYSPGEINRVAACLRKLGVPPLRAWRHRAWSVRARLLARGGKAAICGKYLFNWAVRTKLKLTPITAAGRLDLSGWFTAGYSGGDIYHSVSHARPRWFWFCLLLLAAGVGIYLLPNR
- TEST_PROTOCOL: biochemical
- CONDITION_LABEL: pre-incubated 37° C. 30 minutes; RdRp reaction 90 minutes at 37° C.; read-out: HCV NS5B inhibition EC50
- Protocol: The compounds were tested in the Replizyme HCV heterotemplate radioactive RNA-dependent RNA-polymerase (RdRp) assay. The test compounds were pre-incubated with the RNA template and NS5B polymerase protein at 37° C. for 30 minutes. The RdRp reaction was initiated with the addition of the NTPs to the buffer-NS5B-compound mix, and was allowed to proceed for 90 minutes at 37° C. […]
Reported values of EC50 for individual entries

CC(C)CCc1c(O)c(C2=Nc3ccccc3S(=O)(=O)N2)c(O)c2ccccc12 :: 0.1 to 1 µM
Cc1cc2c(o1)c(C1=NS(=O)(=O)c3cc(NS(C)(=O)=O)ccc3N1)c(=O)n1ccccc21 :: 10 to 50 µM
COc1ccc(Cc2c(=O)c(C3=NS(=O)(=O)c4cc(NS(C)(=O)=O)ccc4N3)c(O)n3ccccc23)cc1 :: 0.1 to 1 µM
CS(=O)(=O)Nc1ccc2c(c1)S(=O)(=O)N=C(c1c(O)n3nccc3n(CCc3ccc(F)cc3)c1=O)N2 :: > 50 µM

# get_value(readout= EC50, system= NS5B polymerase protein (Hepatitis C virus genotype 1a, UniProt P27958)) for CC(C)CCC1(C)C(=O)C(C2=Nc3ccccc3S(=O)(=O)N2)=C(O)c2cccn21 (stereo not drawn)
< 0.1 µM

What value of EC50 on NS5B polymerase protein (Hepatitis C virus genotype 1a, UniProt P27958) does CC(C)CCn1cc(C2=NS(=O)(=O)c3ccccc3N2)c2ccccc21 have?
10 to 50 µM
